Item-by-item account of inhibition
Target: Gag-Pol polyprotein (Human immunodeficiency virus type 1 group M subtype B (isolate HXB2)) (UniProt P04585)
Assay: RNase H inhibition, HIV 1 Gag Pol polyprotein, FRET biochemical assay, screening (AID 372)
Settings: HIV-1 RT RNase H, FRET RNA/DNA substrate fluorescence; at 10 µM; hits give high values
Out of some 100,000 compounds screened, about 770 (0.77%) were called active. The sample holds actives, similar compounds and a random draw of the others, so the mix is not that of the screen.

Molecule	Output Unit	inhibition
CCCC1=C(C(=O)OCC)C(c2ccc(Cl)cc2Cl)NC(=O)N1 (stereo not given)	%	4
NNC(=O)CN1C(c2ccccc2)=Nc2ccc(Br)cc2C1c1ccccc1 (stereo not given)	%	15
CCN1C(=O)C(=Cc2ccc(O)cc2)C(=O)NC1=S	%	4
CCc1c(C)c(C#N)c2nc3ccccc3n2c1Nc1ccc(N(CC)CC)cc1	%	30
COc1ccc(-n2nc3cc(C)c(NC(=O)COc4ccc([N+](=O)[O-])cc4)cc3n2)cc1	%	6

###

Item-by-item account of inhibition
Biological target: Gag-Pol polyprotein (Human immunodeficiency virus type 1 group M subtype B (isolate HXB2))
Test: RNase H inhibition, HIV 1 Gag Pol polyprotein, FRET biochemical assay, screening (AID 372)
Settings: HIV-1 RT RNase H, FRET RNA/DNA substrate fluorescence; at 10 µM; hits give high values
The whole screen tested about 100,000 compounds, of which about 770 (0.77%) were called active. The entries come from a sample that favours actives as a whole.

Mol	Output Unit	inhibition
Cc1ccc2oc(-c3ccc(C)c(NC(=O)c4cccc(Cl)c4Cl)c3)nc2c1	%	54
O=C(COc1ccccc1)Nc1ccc(-c2nc3cc(Cl)ccc3o2)cc1	%	23
Cc1ccc(OCC(=O)Nc2cccc(-c3nc4cc(Cl)ccc4o3)c2C)c(C)c1	%	27
O=C(COc1ccc(Br)cc1)Nc1cccc(-c2nc3cc(Cl)ccc3o2)c1	%	12
COc1ccc(-n2cccc2/C=C2\C(=O)NC(=S)N(c3ccc(Br)cc3)C2=O)cc1	%	32
COc1ccc(NC(=O)c2ccc(CN3CCN(c4ccccc4)CC3)cc2)cc1	%	9
COc1ccc(N/C(C)=C/C(=O)ONC(=O)c2ccccc2)cc1	%	5
COc1ccc(-n2cccc2/C=C2/SC(=O)N(C)C2=O)cc1	%	53
O=C(Nc1nc2ccc3ccccc3c2s1)c1ccc(Cl)cc1	%	54
Cc1ccc(-c2nc3cc(Cl)ccc3o2)cc1NC(=O)Cc1ccccc1	%	55
Cc1cc(NC(=O)c2ccc(-c3ccc(Cl)cc3)o2)ccc1NC(=O)c1ccco1	%	11
O=C(Nc1nc2ccc3ccccc3c2s1)c1ccc(C(=O)c2ccccc2)cc1	%	18
CN1C(=O)S/C(=C/c2cccn2-c2ccc(Cl)cc2)C1=O	%	44
O=C(Nc1ccc(Cl)cc1)c1ccccc1C(=O)c1ccc(Cl)cc1	%	18
CC(C)c1ccc(/C=C/C(=O)Nn2cnnc2)cc1	%	0
Cc1ccc(-n2c(/C=C/c3c(C)n(C)c4ccccc34)nc3ccccc3c2=O)cc1	%	0
O=C(COc1ccc(Br)cc1)Nc1ccc(-c2nc3cc(Cl)ccc3o2)cc1	%	59
Cc1ccccc1OCC(=O)Nc1cccc(-c2nc3cc(Cl)ccc3o2)c1C	%	15
O=C1NC(=O)C(=Cc2cccn2-c2ccc(Cl)cc2)C(=O)N1	%	57
Cc1ccc(-c2nc3cc(Cl)ccc3o2)cc1NC(=O)c1cccc(Cl)c1Cl	%	16
Cc1ccc(-c2nc3ccccc3o2)cc1NC(=O)c1cccc(Cl)c1Cl	%	43
O=C1NC(=S)N(c2ccccc2)C(=O)/C1=C/c1cccn1-c1ccc(Cl)cc1	%	52

###

Molecular target: Gag-Pol polyprotein (Human immunodeficiency virus type 1 group M subtype B (isolate HXB2)) (UniProt P04585)
Experiment: RNase H inhibition, HIV 1 Gag Pol polyprotein, FRET biochemical assay, screening (AID 372)
Details: HIV-1 RT RNase H, FRET RNA/DNA substrate fluorescence; at 10 µM
About 770 (0.77%) of roughly 100,000 compounds were called active. No stated cut-off is given here; in the data, active means inhibition above about 50%; inactive means the rest. This excerpt belongs to a sample that is enriched for actives.
Outcomes: label 1 (active), label 0 (inactive)

Compound	Class Name
Cc1ccc2oc(-c3ccc(NC(=O)c4ccc(Br)cc4)cc3)nc2c1	label 1
COc1ccc(N2C(=O)C(=O)/C(=C(\O)c3ccc([N+](=O)[O-])cc3)C2c2ccc(Br)cc2)cc1 (stereo not drawn)	label 0
O=C1NC(=S)S/C1=C/c1cccc(OCc2ccccc2)c1	label 0
COc1ccc(CC(=O)Nc2ccc(Br)cc2F)cc1OC	label 0
COc1ccc(CC(=O)Nc2ccc(Cl)cc2C)cc1OC	label 0
Cc1nc2ccccn2c1C(=O)N/N=C\c1ccccc1[N+](=O)[O-]	label 0
COc1ccc(NC(=O)c2c(NC(=O)c3ccco3)sc3c2CCC3)cc1	label 0
CCCOc1ccc(C(=O)Nc2ccc3oc(-c4c(F)c(F)c(F)c(F)c4F)nc3c2)cc1	label 0
COc1cc(NC(=O)C(F)(F)F)c(Cl)cc1NC(=O)c1ccccc1	label 0
COc1ccc(CCNC(=O)COc2ccc(Br)cc2Cl)cc1OC	label 1
COC(=O)c1cccc(NC(=O)CC(=O)c2ccccc2)c1	label 0
FC(F)(F)Oc1ccc(N=Cc2ccc(Br)s2)cc1	label 0
COC(=O)C1=C(C)N=c2s/c(=C\c3ccccc3Cl)c(=O)n2C1c1ccccc1Cl (stereo not drawn)	label 0
COc1ccc(CCNC(=O)COc2ccc(Cl)cc2Br)cc1OC	label 1
CC(C(=O)N1CCOCC1)N1C(=O)c2cccc3cccc(c23)C1=O (stereo not drawn)	label 0
O=C(NC(=S)Nc1ccc(-c2nc3ncccc3o2)cc1)c1cccc(F)c1	label 0
Cc1ccnc(NC(=O)c2cc(-c3ccc(C)c(C)c3)nc3ccccc23)c1	label 0
CCOc1ccc(Cc2c(O)n(-c3ccccc3)c(=S)[nH]c2=O)cc1	label 0
COc1ccc(CCNC(=O)COc2ccccc2OC)cc1OC	label 0
O=C(Nc1sc2c(c1C(=O)Nc1ccccc1)CCCCC2)c1ccc([N+](=O)[O-])cc1	label 0
Cc1ccccc1NC(=O)c1c(NC(=O)c2ccco2)sc2c1CCC(C)C2 (stereo not drawn)	label 1
Cc1ccc2oc(-c3ccc(NC(=O)c4ccc5ccccc5c4)cc3)nc2c1	label 1
Cc1ccc2nc(-c3cccc(NC(=O)c4ccc5ccccc5c4)c3)oc2c1	label 0
C=CCN(CC=C)CC(O)CN1C(=O)NC(C)(C)C1=O (stereo not drawn)	label 0
CCOC(=O)c1ccc(NC(=O)c2ccc([N+](=O)[O-])o2)cc1	label 1
Cc1ccc(N=Cc2cc(Br)cc(Br)c2O)c(C)c1	label 0
COc1cc(C2NC(=O)NC(C)=C2C(=O)OCc2ccc3c(c2)OCO3)cc(OC)c1OC (stereo not drawn)	label 0
Cc1ccc2nc(-c3ccc(NC(=S)NC(=O)c4ccccc4)cc3)oc2c1	label 1
Cc1ccc2nc(-c3ccc(NC(=S)NC(=O)c4ccc(C)c(C)c4)cc3)oc2c1	label 0
O=C(COc1ccc(Br)cc1Cl)NCCc1ccccc1	label 0
Cc1ccc(NC(=O)c2c(NC(=O)c3ccc([N+](=O)[O-])cc3)sc3c2CCCC3)cc1	label 0
CN1CCN(S(=O)(=O)c2ccc([N+](=O)[O-])cc2)CC1	label 0
Cc1ccc(C(=O)NC(=S)Nc2ccc(-c3nc4cc(C)c(C)cc4o3)cc2)cc1	label 0
CCOc1ccc(NC(=O)c2ccc([N+](=O)[O-])o2)cc1	label 0
Cc1ccc2oc(-c3ccc(NC(=O)c4ccc(C)c(C)c4)cc3)nc2c1	label 0
O=C(NC(=S)Nc1ccc(-c2nc3ncccc3o2)cc1)c1cccc(Cl)c1	label 1
CCOc1ccccc1NC(=O)c1c(NC(=O)c2ccco2)sc2c1CCC(C)C2 (stereo not drawn)	label 0
Cc1ccc(C)c(OCCOc2ccc(/C=C3\SC(=S)NC3=O)cc2)c1	label 0
c1cc2ccc3ccc(CN4CCOCC4)c4ccc(c1)c2c34	label 0
O=C(Nc1ccc2oc(-c3c(F)c(F)c(F)c(F)c3F)nc2c1)c1ccc(F)cc1	label 0
O=C(Nc1ccc(F)cc1F)c1cnn2c1NC(c1cccs1)CC2C(F)(F)F (stereo not drawn)	label 0
COc1ccc(CC(=O)Nc2ccc(Br)cc2C)cc1OC	label 1
COc1ccc(/C(N)=N/OC(=O)/C=C/c2ccccc2)cc1	label 0

###

Biological target: Gag-Pol polyprotein (Human immunodeficiency virus type 1 group M subtype B (isolate HXB2))
Experiment: RNase H inhibition, HIV 1 Gag Pol polyprotein, FRET biochemical assay, screening (AID 372)
Conditions: HIV-1 RT RNase H, FRET RNA/DNA substrate fluorescence; at 10 µM; hits give high values
Hit rate of the full screen: of about 100,000 compounds, about 770 (0.77%) were called active. The full list was thinned out, with actives kept by preference.
Item-by-item account of inhibition
Metric: inhibition

Molecule	Subject Of Test	Result Value
O=C1OC(c2ccccc2)=C/C1=C\c1c(Cl)cccc1Cl	Gag-Pol polyprotein (Human immunodeficiency virus type 1 group M subtype B (isolate HXB2))	50% (active)
COc1cc(/C=C2\NC(=S)NC2=O)ccc1OCc1c(C)no[n+]1[O-]	Gag-Pol polyprotein (Human immunodeficiency virus type 1 group M subtype B (isolate HXB2))	53% (active)
O=C1NC(=O)N(c2ccc3c(c2)OCO3)C(=O)/C1=C/c1ccc(-c2cccc(Cl)c2)o1	Gag-Pol polyprotein (Human immunodeficiency virus type 1 group M subtype B (isolate HXB2))	53% (active)
O=C1/C(=C\c2cc3c(cc2[N+](=O)[O-])OCO3)SC(=S)N1c1ccccc1	Gag-Pol polyprotein (Human immunodeficiency virus type 1 group M subtype B (isolate HXB2))	24% (inactive)
O=C(Nc1cccc(C(F)(F)F)c1)c1ccc(I)cc1	Gag-Pol polyprotein (Human immunodeficiency virus type 1 group M subtype B (isolate HXB2))	1% (inactive)
COc1cc(C=O)ccc1OCCCCOc1c(C)cc(C)cc1Br	Gag-Pol polyprotein (Human immunodeficiency virus type 1 group M subtype B (isolate HXB2))	31% (inactive)
N#Cc1cnn(-c2ccc3ccccc3c2)c1N	Gag-Pol polyprotein (Human immunodeficiency virus type 1 group M subtype B (isolate HXB2))	5% (inactive)
N=C1S/C(=C\c2ccc(-c3ccccc3F)o2)C(=O)N1c1ccc2c(c1)OCO2	Gag-Pol polyprotein (Human immunodeficiency virus type 1 group M subtype B (isolate HXB2))	30% (inactive)
Cc1no[n+]([O-])c1COc1ccc(/C=C2\NC(=S)NC2=O)cc1	Gag-Pol polyprotein (Human immunodeficiency virus type 1 group M subtype B (isolate HXB2))	4% (inactive)
Cc1ccc(C2=C/C(=C\c3cc([N+](=O)[O-])ccc3Cl)C(=O)O2)cc1	Gag-Pol polyprotein (Human immunodeficiency virus type 1 group M subtype B (isolate HXB2))	43% (inactive)
Brc1ccc(CN2CCN(c3ncccn3)CC2)s1	Gag-Pol polyprotein (Human immunodeficiency virus type 1 group M subtype B (isolate HXB2))	1% (inactive)
O=C1NC(=O)N(c2ccc3c(c2)OCO3)C(=O)/C1=C/c1ccc(-c2cccc([N+](=O)[O-])c2)o1	Gag-Pol polyprotein (Human immunodeficiency virus type 1 group M subtype B (isolate HXB2))	0% (inactive)
COc1cc(NC(=O)COc2ccc(C)c(C)c2)c(OC)cc1Cl	Gag-Pol polyprotein (Human immunodeficiency virus type 1 group M subtype B (isolate HXB2))	7% (inactive)
CC(C)c1cc(C(C)C)c(S(=O)(=O)NNC(=O)c2ccncc2)c(C(C)C)c1	Gag-Pol polyprotein (Human immunodeficiency virus type 1 group M subtype B (isolate HXB2))	1% (inactive)
O=C1OC(c2ccccc2)=C/C1=C/c1ccc(Cl)cc1	Gag-Pol polyprotein (Human immunodeficiency virus type 1 group M subtype B (isolate HXB2))	7% (inactive)
O=C(Nc1ccccc1C(=O)N1CCCC1)c1ccccc1	Gag-Pol polyprotein (Human immunodeficiency virus type 1 group M subtype B (isolate HXB2))	0% (inactive)
O=C(c1ccc([N+](=O)[O-])cc1[N+](=O)[O-])N1CCN(C(c2ccccc2)c2ccccc2)CC1	Gag-Pol polyprotein (Human immunodeficiency virus type 1 group M subtype B (isolate HXB2))	2% (inactive)
Cc1ccc(C)n1-c1cccc2cccnc12	Gag-Pol polyprotein (Human immunodeficiency virus type 1 group M subtype B (isolate HXB2))	67% (active)
Cc1nnc(NC(=O)Cc2ccc(Br)cc2)s1	Gag-Pol polyprotein (Human immunodeficiency virus type 1 group M subtype B (isolate HXB2))	3% (inactive)
Oc1cccc(/C=N/Nc2nc(-c3ccc(Br)cc3)cs2)c1	Gag-Pol polyprotein (Human immunodeficiency virus type 1 group M subtype B (isolate HXB2))	16% (inactive)
CCC(C)c1ccc(NC(=O)Cc2ccc(Cl)cc2)cc1 (configuration not stated)	Gag-Pol polyprotein (Human immunodeficiency virus type 1 group M subtype B (isolate HXB2))	10% (inactive)
Cn1c(=O)c2[nH]c(N/N=C(/C#N)C(N)=O)nc2n(C)c1=O	Gag-Pol polyprotein (Human immunodeficiency virus type 1 group M subtype B (isolate HXB2))	8% (inactive)

Each recorded value in this set is attributed to PubChem BioAssay AID372.
